The values you see were collected from the supplement of paper PMC10567573.

B1: FAM164C (parent)
chain: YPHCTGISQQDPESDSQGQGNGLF

Variants of: B1
ASSAY_SUMMARY: protein stability index of a GFP-peptide fusion (GPS, HEK-293T) (PSI 1-6); higher = more stable;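 further: lentivirally expressed fusions sorted by FACS into six bins by GFP to DsRed ratio, PSI derived from sequencing read proportions per bin multiplied by bin number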
MEASUREMENT_SETUP: c terminus: a fixed tail appended
RESULT_TYPE: protein stability index
Respond using a number only.

// solved cases for protein stability index follow
>>> recorded_value("S16H")
3.78
>>> recorded_value("I7K")
3.56
>>> recorded_value("D15K")
3.64

-- ask Let me know recorded protein stability index for `H3K` , thanks.
-- reply 3.9

-- ask Let me know recorded protein stability index for `S14G` , thanks.
-- reply 3.74

-- ask Let me know recorded protein stability index for `Y1F` , thanks.
-- reply 3.49

-- ask Let me know recorded protein stability index for `T5M` , thanks.
-- reply 2.23
